tested target: Peptide (C4)
assay info: Fluorescence titration of VEPEP-4 binding to peptide cargo
*1 amine or outer side, *2 acyl side, *3 side chain or, on linkers, in order; H or OH if unused. Where a SMILES comes first, the peptide text is derived from it. [ ]: non-standard residue; d: D form. Cysteamide = C(CS[*:3])N[*:1]; βAla = NCCC(=O)O
outcome measure: Kd

Returns the measured Kd for the input compound. Input: CC(=O)NCCC(=O)N[C@@H](Cc1c[nH]c2ccccc12)C(=O)N[C@@H](Cc1c[nH]c2ccccc12)C(=O)N[C@@H](CCCNC(=N)N)C(=O)N[C@@H](CC(C)C)C(=O)N[C@@H](CCCNC(=N)N)C(=O)N[C@@H](CO)C(=O)N[C@@H](Cc1c[nH]c2ccccc12)C(=O)N[C@@H](Cc1ccccc1)C(=O)N[C@@H](CCCNC(=N)N)C(=O)NCCS [Short 3, X1WWRLRSWFR] (Ac-[βAla]WWRLRSWFR-Cysteamide)
10 to 20 nM

// query Kd value for entry CC(=O)NCCC(=O)N[C@@H](Cc1c[nH]c2ccccc12)C(=O)N[C@@H](Cc1ccccc1)C(=O)N[C@@H](CCCNC(=N)N)C(=O)N[C@@H](CC(C)C)C(=O)N[C@@H](CO)C(=O)N[C@@H](CC(C)C)C(=O)N[C@@H](CCCNC(=N)N)C(=O)N[C@@H](Cc1ccccc1)C(=O)N[C@@H](Cc1c[nH]c2ccccc12)C(=O)N[C@@H](CCCNC(=N)N)C(=O)NCCS [VEPEP-3j, X1WFRLSLRFWR] (Ac-[βAla]WFRLSLRFWR-Cysteamide)
10 to 20 nM

Look up Kd for this compound: CC(=O)NCCC(=O)N[C@@H](Cc1c[nH]c2ccccc12)C(=O)N[C@@H](Cc1ccccc1)C(=O)N[C@@H](CCCNC(=N)N)C(=O)N[C@@H](CC(C)C)C(=O)N[C@@H](CO)C(=O)N[C@@H](CC(C)C)C(=O)N[C@@H](CCCNC(=N)N)C(=O)N[C@@H](Cc1ccccc1)C(=O)N[C@@H](Cc1c[nH]c2ccccc12)C(=O)NCCS [Short 4, X1WFRLSLRFW] (Ac-[βAla]WFRLSLRFW-Cysteamide)
10 to 20 nM

Could you share which Kd value was measured for CC(=O)NCCC(=O)N[C@@H](Cc1c[nH]c2ccccc12)C(=O)N[C@@H](Cc1c[nH]c2ccccc12)C(=O)N[C@@H](CCCNC(=N)N)C(=O)N[C@@H](CC(C)C)C(=O)N[C@@H](CO)C(=O)N[C@@H](CC(C)C)C(=O)N[C@@H](CCCNC(=N)N)C(=O)N[C@@H](Cc1c[nH]c2ccccc12)C(=O)N[C@@H](Cc1c[nH]c2ccccc12)C(=O)NCCS [VEPEP-3i, X1WWRLSLRWW] (Ac-[βAla]WWRLSLRWW-Cysteamide) ?
10 to 20 nM
